Hey, just so you know, these numbers are from patent US7241775B2.

Target: UniProtKB P48764
Sequence (P48764 26-834, species assumed): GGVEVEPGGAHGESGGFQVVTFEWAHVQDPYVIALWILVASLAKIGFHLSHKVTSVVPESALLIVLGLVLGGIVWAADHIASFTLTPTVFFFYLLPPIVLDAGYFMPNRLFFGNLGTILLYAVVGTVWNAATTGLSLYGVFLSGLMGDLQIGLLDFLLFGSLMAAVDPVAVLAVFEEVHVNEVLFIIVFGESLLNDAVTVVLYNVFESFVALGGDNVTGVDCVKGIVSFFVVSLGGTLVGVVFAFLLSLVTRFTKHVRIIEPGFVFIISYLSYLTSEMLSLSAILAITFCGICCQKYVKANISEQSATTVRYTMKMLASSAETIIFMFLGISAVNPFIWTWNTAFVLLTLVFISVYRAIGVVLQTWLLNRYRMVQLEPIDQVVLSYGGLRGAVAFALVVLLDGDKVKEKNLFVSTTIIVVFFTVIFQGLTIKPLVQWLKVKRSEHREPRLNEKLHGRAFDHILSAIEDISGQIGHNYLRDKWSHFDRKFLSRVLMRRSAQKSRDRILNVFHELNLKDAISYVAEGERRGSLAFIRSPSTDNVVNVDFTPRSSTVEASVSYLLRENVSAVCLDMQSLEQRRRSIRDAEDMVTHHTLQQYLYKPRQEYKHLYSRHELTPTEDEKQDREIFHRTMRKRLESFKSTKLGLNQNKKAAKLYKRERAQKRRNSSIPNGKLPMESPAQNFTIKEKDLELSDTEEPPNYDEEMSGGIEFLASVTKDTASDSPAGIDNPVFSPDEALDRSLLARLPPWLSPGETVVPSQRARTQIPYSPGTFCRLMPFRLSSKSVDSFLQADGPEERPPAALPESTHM
Assay: Recovery of intracellular pH (pHi) after acidification, BCECF fluorescence, NHE3
Details: inhibition of pH recovery after intracellular acidification; rate registered at three minutes for NHE3; bicarbonate-free
pIC50: −log10 of the molar value. Structures can show the parent of a compound that is named as a salt.
quantity: pIC50

compound	quantity	observedResult
CN1Cc2c(Cl)cc(Cl)cc2C(c2cccc(NC(=O)[C@H](O)[C@@H](O)[C@H](O)[C@H](O)CO)c2)C1 (stereo partly shown)	pIC50	8.44
CN1Cc2c(Cl)cc(Cl)cc2C(c2cccc(NC(=O)N[C@@H](CC(N)=O)C(=O)O)c2)C1 (stereo partly shown) [Example 13, hydrochloride]	pIC50	7.75

I. CN1Cc2c(Cl)cc(Cl)cc2C(c2ccc(NC(=O)[C@@H](N)CCCNC(=N)N)cc2)C1 (stereo partly shown) [Example 31, trifluoroacetate]
II. CN1Cc2c(Cl)cc(Cl)cc2C(c2cccc(C(=O)N[C@@H](CO)C(=O)O)c2)C1 (stereo partly shown) [Example 16, hydrochloride]
## Task Lab log: flag the item ( I or II ) with the smaller pIC50 figure. Indicate your choice by writing its label.
## Result II
(II: 6.80, I: 7.54)
